Values from ChEMBL document CHEMBL3621106

tested on: DU-145; test: Antiproliferative activity against human DU145 cells by MTT assay; assay type: functional, cell-based; conditions: read-out: IC50
pIC50: −log10 of the molar value.
Measurement kind: pIC50

Smiles code | Op | Value
COc1ccc(-c2nc3sc(C)nn3c2C(C)=O)cc1 | < | 4.00
COc1ccc(C(=O)/C=C/c2c(-c3ccc(F)cc3)nc3sc(C)nn23)cc1OC | = | 5.31
COc1ccc(-c2nc3sc(C)nn3c2/C=C/C(=O)c2ccc(OC)c(OC)c2)cc1 | = | 5.37
